Where do the numbers come from? From PubChem BioAssay (NCI).

- System: SR leukemia
- METHOD_SUMMARY: NCI tumour cell line growth inhibition, 48 h
Can you tell me log10 TGI for the items I'm about to list?
Heads up, the numbers here are log10 of TGI in µM units.

Examples with answers:
[[record]]
compound = "CC1=C(/C=C/C(=O)CC(=O)/C=C/C2=C(C)CCCC2(C)C)C(C)(C)CCC1"
measure_name = "log10 TGI"
experimental_value = 1.61

[[record]]
compound = "COc1ccc2c(c1)c1c(n2CCN2CCOCC2)-c2cccc(OC)c2CC1"
measure_name = "log10 TGI"
experimental_value = 1.55

[[record]]
compound = "NC(=S)N=Nc1c(O)[nH]c2c(Cl)cc(Cl)cc12"
measure_name = "log10 TGI"
experimental_value = 1.85


Provide log10 TGI values for the following items, in order.
1. COC(=O)CCC(=O)N1C/C(=C\c2ccccc2)C(=O)/C(=C/c2ccccc2)C1
2. C[C@]12CC[C@@H]3c4ccc(O)cc4CC[C@H]3[C@@H]1CC[C@@H]2NS(=O)(=O)c1ccc(Br)cc1
3. Cc1cn(C2C=CC(COP(=O)(OCc3ccc([N+](=O)[O-])o3)N(C)CCCCCl)O2)c(=O)[nH]c1=O (stereo not given)
4. COC(=O)c1cccc2c3ccccc3c3ccccc3c12
5. O=C1c2c(ccc3c2CCC3)CC1Cc1ccc2c(c1)CCC2 (stereo not given)

Result:
1. 1.09
2. 1.59
3. 0.68
4. 1.94
5. 1.49

====

- System: MDA-MB-435
A correct response names exactly one class from Y (active), N (inactive)

[[record]]
molecule = "CC[C@@]1(OC(=O)CN(C)C)C(=O)OCc2c1cc1n(c2=O)Cc2cc3c(N)cccc3nc2-1"
classification = "Y"

[[record]]
molecule = "Cc1cc(C(=O)Nc2n[nH]c3ccccc23)n[nH]1"
classification = "N"

[[record]]
molecule = "C/C=C/C/C=C/[C@H](C)C[C@H](O)[C@@H]1C[C@@H]2O[C@H]2/C=C/[C@@H]2OC(C)(C)O[C@H]2/C=C/C[C@H](C)CC(=O)O1"
classification = "N"


Q: Outcome logged for "O=C1Nc2cc(-c3cccc(O)c3)ccc2/C1=C/c1ccc[nH]1" in this assay:
Result: Y

Q: Outcome logged for "COCCOCCOCc1n(Cc2ccc3ccccc3c2)c2ccccc2[n+]1Cc1ccc2ccccc2c1" in this assay:
Result: Y

Q: Outcome logged for "CN(C)C(=O)OCc1nc2c(N3CCOCC3)nc(-c3ccccc3)nc2n1C" in this assay:
Result: N

====

- Tested on: EKVX NSCLC
- METHOD_SUMMARY: NCI tumour cell line growth inhibition, 48 h; in the data active = GI50 below about 0.43 µM; inactive = the rest
A correct response names exactly one class from Yes = active, No = inactive

[[record]]
compound = "CC[C@@]1(OC(=O)CN(C)C)C(=O)OCc2c1cc1n(c2=O)Cc2cc3c(N)cccc3nc2-1"
classification = "Yes"


Q: Outcome logged for "Cc1ccc(S(=O)(=O)OCC#CCOS(=O)(=O)c2ccc(C)cc2)cc1" in this assay:
Result: No

Q: Outcome logged for "CC(=O)Oc1ccc2c(c1)[C@@]1(C)CCCC(C)(C)[C@@H]1CC2" in this assay:
Result: No

Q: Outcome logged for "O=C(NCCc1ccccc1)Nc1ccc2cc3ccc(NC(=O)NCCc4ccccc4)cc3nc2c1" in this assay:
Result: No

Q: Outcome logged for "N#Cc1cnc2cc(OC[C@@H](O)CO)c(NC(=O)C3CCCC3)cc2c1Nc1ccc(OCc2cccc(F)c2)c(Cl)c1" in this assay:
Result: No

Q: Outcome logged for "CNC(=O)c1cc(Oc2cccc3nc(NC(=O)Nc4cc(C(F)(F)F)cc(C(F)(F)F)c4)ccc23)ccn1" in this assay:
Result: No

Q: Outcome logged for "COc1ccc(/C(C)=N/NC(=O)CSc2nc3ccccc3c(=O)n2CCc2ccc(S(N)(=O)=O)cc2)cc1" in this assay:
Result: No

Q: Outcome logged for "CCOC(=O)Nc1nc2ccccc2[nH]1" in this assay:
Result: No

Q: Outcome logged for CCC1C(C)C=NN1c1nc(N)nc(C(C#N)=Nc2ccc(N(C)C)cc2)n1 (centres undefined) in this assay:
Result: No

====

- Tested on: SF-295 CNS
- METHOD_SUMMARY: NCI tumour cell line growth inhibition, 48 h
Can you tell me TGI for the items I'm about to list?
Answers are plain numbers, in µM.

Examples with answers:
[[record]]
compound = "CN(C)C(=O)OCc1nc2c(N3CCOCC3)nc(-c3ccccc3)nc2n1C"
assay_target = "SF-295 CNS"
unit_spec = "µM"
experimental_value = 3.08

[[record]]
compound = "Cc1cc(C)c2c(n1)S(=O)(=O)N(CCCN1CCN(c3cccc(Cl)c3)CC1)/C(=C(\\O)c1ccccc1)C2=O"
assay_target = "SF-295 CNS"
unit_spec = "µM"
experimental_value = 95.9

[[record]]
compound = "CC[C@@]1(OC(=O)C(N)CCCCN)C(=O)OCc2c1cc1n(c2=O)Cc2cc3ccccc3nc2-1 (stereo not given in full)"
assay_target = "SF-295 CNS"
unit_spec = "µM"
experimental_value = 0.813

[[record]]
compound = "NCCCCCNc1noc(Cc2c[nH]c3cc(Br)ccc23)n1"
assay_target = "SF-295 CNS"
unit_spec = "µM"
experimental_value = 25.3


Let us examine a further case.
Q: Can you look up the measured TGI of "CN(CCNC(=O)c1c[nH]c2c1ccc1ccccc12)CCNC(=O)c1c[nH]c2c1ccc1ccccc12" for me?
Result: 4.79

====

- Tested on: OVCAR-3 ovarian
- METHOD_SUMMARY: NCI tumour cell line growth inhibition, 48 h
Can you tell me TGI for the items I'm about to list?
One number for each entry, in µM.

[[record]]
molecule = "O=[N+]([O-])C1=Cc2cc(Cl)ccc2OC1c1cccc2ccccc12 (stereo not given)"
measure_name = "TGI"
experimental_value = 2.95

[[record]]
molecule = "CO/N=C(/C)c1cccc(Nc2nc3ccc(Cl)cc3c3[nH]c4ccccc4c23)c1"
measure_name = "TGI"
experimental_value = 18.5

[[record]]
molecule = "CC(=O)NC1C(OC(C)C(=O)NC(C(=O)NC(CCC(=O)NCCCNC2c3ccccc3Nc3cccc([N+](=O)[O-])c32)C(N)=O)C(C)C)C(O)C(CO)OC1(C)OCc1ccccc1 (stereo not given)"
measure_name = "TGI"
experimental_value = 2.85

[[record]]
molecule = "CNC(=O)c1cc(Oc2cccc3nc(NC(=O)Nc4cc(C(F)(F)F)cc(C(F)(F)F)c4)ccc23)ccn1"
measure_name = "TGI"
experimental_value = 21.3

[[record]]
molecule = "COCCOCCOCc1n(Cc2ccc3ccccc3c2)c2ccccc2[n+]1Cc1ccc2ccccc2c1"
measure_name = "TGI"
experimental_value = 1.48

[[record]]
molecule = "O=C(Nn1c(-c2cccs2)nc2ccc(I)cc2c1=O)c1ccccc1"
measure_name = "TGI"
experimental_value = 39.3

[[record]]
molecule = "C=C1C(=O)OC2C1C(OC(=O)/C(C)=C/C)CC(O)(CCl)C1C(O)C=C(C)C21O (stereo not given)"
measure_name = "TGI"
experimental_value = 27.7

[[record]]
molecule = "CCCOc1cc2ccccc2cc1C(=O)Nc1nc(NC)c2c(ccc3nccc32)[nH]1"
measure_name = "TGI"
experimental_value = 1.13


Provide TGI values for the following items, in order.
1. CN(C)CCCNc1ccc2nnn3c4ccc(OC(=O)c5ccccc5)cc4c(=O)c1c23
2. [N-]=[N+]=NCCCn1c2c(c3ccc([N+](=O)[O-])cc3c1=O)C(=O)c1cc3c(cc1-2)OCO3
3. O=c1c2cc(Br)cc(Br)c2nc(CCCl)n1-c1ccc(O)c([N+](=O)[O-])c1

Result:
1. 24.9
2. 2.87
3. 33.7

====

- Test system: OVCAR-4 ovarian
- METHOD_SUMMARY: NCI tumour cell line growth inhibition, 48 h
Can you tell me TGI for the items I'm about to list?
Numbers only, in µM.

[[record]]
molecule = "C=C1CCCC(C)(C)[C@H]1C/C=C1\\CCOC1=O"
measure_name = "TGI"
experimental_value = 26.8


Q: Can you look up the measured TGI of CCOC(=O)C(C)Sc1nnc(COc2ccc(Cl)cc2)n1-c1ccccc1 (stereo not given) for me?
Result: 42.6

====

- Tested on: UO-31 renal
- METHOD_SUMMARY: NCI tumour cell line growth inhibition, 48 h
Can you tell me TGI for the items I'm about to list?
Answers are plain numbers, in µM.

[[record]]
compound = "Cc1cccc(NC(=O)O/N=C(\\Cl)C(C)C)c1"
measure_name = "TGI"
experimental_value = 30.3


Provide TGI values for the following items, in order.
1. C[C@H]1C/C=C/[C@H]2[C@@H]3O[C@]3(C)[C@@H](C)[C@H]3[C@H](Cc4ccccc4)NC(=O)[C@]32OC(=O)O/C=C/[C@@](C)(O)C1=O
2. OC(c1ccc(Cl)cc1)(c1ccc(Cl)cc1)c1cncnc1

Result:
1. 0.0499
2. 31.3
